tested on: HT-29 cells; test: Cytotoxicity, XTT viability assay, HT-29; conditions: CC50 HT-29 / IC50 trophozoite ATCC strain 30957
Lab note - cut at 400 for Selectivity index (CC50/IC50) HT-29: met if strictly below, not met if not.

Below are worked cases with known answers.
Ask | Please check: Selectivity index (CC50/IC50) HT-29 for O=C(Nc1ccc([N+](=O)[O-])cc1)Nc1ncc([N+](=O)[O-])s1 , strictly under 400 or not?
Reply | met

Ask | Please check: Selectivity index (CC50/IC50) HT-29 for CCCCC(=O)Nc1ncc([N+](=O)[O-])s1 [FLP-2, N-(5-Nitro-1,3-thiazol-2-yl)pentanamide] , strictly under 400 or not?
Reply | not met

Ask | Please check: Selectivity index (CC50/IC50) HT-29 for CCCCOc1ccc(NC(=O)Nc2ncc([N+](=O)[O-])s2)cc1 , strictly under 400 or not?
Reply | met

Ask | Please check: Selectivity index (CC50/IC50) HT-29 for O=C(Nc1ncc([N+](=O)[O-])s1)c1cccc([N+](=O)[O-])c1 , strictly under 400 or not?
Reply | not met

Ask | Please check: Selectivity index (CC50/IC50) HT-29 for CC(=O)Oc1ccccc1C(=O)Nc1ncc([N+](=O)[O-])s1 [NTZ, nitazoxanide] , strictly under 400 or not?
Reply | met

Kindly review the next compound as well.
Ask | Please check: Selectivity index (CC50/IC50) HT-29 for Cc1ncc([N+](=O)[O-])n1CCO [MTZ, metronidazole, reference compound] , strictly under 400 or not?
Reply | met
